- targetUnderTest: D(1A) dopamine receptor (Bos taurus, UniProt Q95136)
- Sequence (Q95136 whole entry): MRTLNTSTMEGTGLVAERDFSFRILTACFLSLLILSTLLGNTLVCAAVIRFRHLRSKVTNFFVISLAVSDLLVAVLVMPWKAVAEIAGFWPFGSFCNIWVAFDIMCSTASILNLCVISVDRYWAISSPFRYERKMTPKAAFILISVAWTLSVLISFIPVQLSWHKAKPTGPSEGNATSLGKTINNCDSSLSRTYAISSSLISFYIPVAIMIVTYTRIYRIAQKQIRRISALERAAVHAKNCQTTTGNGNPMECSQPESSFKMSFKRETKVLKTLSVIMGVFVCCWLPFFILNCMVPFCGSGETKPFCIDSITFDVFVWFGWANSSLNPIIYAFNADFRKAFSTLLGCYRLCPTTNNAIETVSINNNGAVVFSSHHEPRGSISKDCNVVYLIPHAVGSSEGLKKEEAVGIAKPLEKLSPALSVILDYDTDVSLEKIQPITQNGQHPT
- testDescription: In vitro displacement of [3H]- SCH 23390 from the dopamine receptor D1 of bovine striatal membrane
Here the recorded Ki is given for each entry.
Provide only the numeric value, understood in µM.

Known results for compounds:
c1ccc(CN2CCN(Cc3coc(-c4ccccc4)n3)CC2)cc1; 72
COc1ccc(Br)cc1-c1nc(CNC2CCN(Cc3ccccc3)CC2)co1; 12.5
COc1ccc(Br)cc1-c1nc(CNC[C@@H]2CCN(Cc3ccccc3)C2)cs1; 4

Lookup: Record request: Ki value, item `COc1ccc(Br)cc1-c1nc(CN[C@@H]2CCN(Cc3ccccc3)C2)co1`
Found: 16

Lookup: Any idea what its Ki is? The compound is `COc1ccc(Br)cc1-c1nc(CNCC[C@@H]2CCN(Cc3ccccc3)C2)co1`
Found: 8.95

----------
- targetUnderTest: D(1A) dopamine receptor (Bos taurus, UniProt Q95136)
- testDescription: In vitro displacement of [3H]- SCH 23390 from the dopamine receptor D1 of bovine striatal membrane
property: pKi
// pKi: -log10(molar conc.)

Below, each entry is followed by its recorded pKi result.
COc1ccc(Br)cc1-c1nc(CN2CCN(Cc3ccccc3)CC2)co1; 4.81
COc1ccc(Br)cc1-c1nc(CNCCC2CCN(Cc3ccccc3)C2)co1 (stereo unspecified); 5.18

Now let's try a different one.
Lookup: # get_value(readout='pKi', item= `c1ccc(CN2CCN(Cc3csc(-c4ccccc4)n3)CC2)cc1` )
Found: 5.04

----------
- targetUnderTest: D(4) dopamine receptor (Homo sapiens, UniProt P21917)
- Sequence (P21917 whole entry): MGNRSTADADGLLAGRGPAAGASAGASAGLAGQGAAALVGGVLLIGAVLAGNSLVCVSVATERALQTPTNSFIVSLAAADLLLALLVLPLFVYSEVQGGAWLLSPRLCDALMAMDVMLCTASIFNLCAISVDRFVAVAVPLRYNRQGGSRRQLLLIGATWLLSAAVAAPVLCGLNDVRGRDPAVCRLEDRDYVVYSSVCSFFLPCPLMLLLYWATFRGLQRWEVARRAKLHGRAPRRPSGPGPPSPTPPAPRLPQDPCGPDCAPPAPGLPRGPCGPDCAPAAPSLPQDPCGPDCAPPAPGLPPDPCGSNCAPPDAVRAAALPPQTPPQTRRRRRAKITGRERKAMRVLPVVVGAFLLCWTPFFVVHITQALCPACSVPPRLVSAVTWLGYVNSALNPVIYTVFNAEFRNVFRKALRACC
- testDescription: In vitro displacement of [3H]spiperone from the recombinant human dopamine receptor D4 expressed in CHO cells
- Format: cell-based
Ki reference
Unit nM implied. Number only.

COc1ccc(Br)cc1-c1nc(CN2CCN(c3ccccc3)CC2)co1; 370
COc1ccc(Br)cc1-c1nc(CN2CCN(Cc3ccccc3)CC2)cs1; 370

Lookup: Ki of `c1ccc(CN2CCC(NCc3csc(-c4ccccc4)n3)CC2)cc1` on D(4) dopamine receptor (Homo sapiens, UniProt P21917)?
Found: 53

----------
- targetUnderTest: D(4) dopamine receptor (Homo sapiens)
- testDescription: In vitro displacement of [3H]spiperone from the recombinant human dopamine receptor D4 expressed in CHO cells
- Format: cell-based
property: pKi
By convention, pKi is the negative base-10 log of a molar concentration.

In the examples that follow, each entry is paired with its recorded pKi.
c1ccc(-c2nc(CN3CCN(c4ccccc4)CC3)co2)cc1; 6.60
COc1ccc(Br)cc1-c1nc(CNCC[C@@H]2CCN(Cc3ccccc3)C2)co1; 6.77
COc1ccc(Br)cc1-c1nc(CNC[C@@H]2CCN(Cc3ccccc3)C2)cs1; 6.82
COc1ccc(Br)cc1-c1nc(CNCCC2CCN(Cc3ccccc3)C2)co1 (stereo not given); 6.82
COc1ccc(Br)cc1-c1nc(CN2CCN(Cc3ccccc3)CC2)co1; 6.15

Lookup: # get_value(readout='pKi', item= `c1ccc(CN2CCC(NCc3coc(-c4ccccc4)n3)CC2)cc1` )
Found: 6.46

Lookup: Dear colleague, I am looking for the recorded pKi of the following compound: `COc1ccc(Br)cc1-c1ncc(CNC[C@@H]2CCN(Cc3ccccc3)C2)[nH]1`
Found: 5.95

Lookup: # pKi lookup, item `COc1ccc(Br)cc1-c1nc(CN(C)C[C@@H]2CCN(Cc3ccccc3)C2)co1`
Found: 6.19

Lookup: Request the reported pKi associated with `COc1ccc(Br)cc1-c1nc(CNC2CCN(Cc3ccccc3)CC2)co1`
Found: 6.41

Lookup: Which pKi is reported for this compound? `c1ccc(CN2CCN(Cc3coc(-c4ccccc4)n3)CC2)cc1`
Found: 5.84

Reference source for all entries: ChEMBL document CHEMBL1133305
